Test system: SEM cells
Assay: AUC of viability dose-response curve (% viability x log10 dose units); higher = less sensitive
Details: HPLM + 10% dialyzed FBS; 48 h
This section presents compounds with their documented AUC of viability dose-response curve values.
Lab note: jot down the number only; don't add units.

Reference set (5 entries):
{"columns": ["compound", "AUC of viability dose-response curve"],
 "data": [
  ["CC(N)C12CC3CC(CC(C3)C1)C2 (configuration not stated)", 468],
  ["CNc1nccc(-c2cccnc2Oc2cc(C(=O)Nc3cccc(C(F)(F)F)c3)ccc2C)n1", 466],
  ["CC/1=C(/N2[C@H](SC1)[C@H](NC(=O)[C@H](N)\\C3=C\\C\\C=C/C3)C2=O)C(O)=O", 429],
  ["CC1(C)O[C@@H]2C[C@H]3[C@@H]4CCC5=CC(=O)C=C[C@]5(C)[C@H]4[C@@H](O)C[C@]3(C)[C@]2(C(=O)CO)O1", 313],
  ["FC1=CC=C(SC/2=N/N3\\C=N/C(=O)/C(=C3/C=C2)C4=C(Cl)C=CC=C4Cl)C(=C1)F", 409]
]}

Provide the documented AUC of viability dose-response curve with SEM cells as the system for CC1COC2(CCN(CC2)C/3=N/C(=O)C4=CC(=CC(=C4S3)[N+]([O-])=O)C(F)(F)F)O1 (configuration not stated)
456

Form: Entry = CC(C)NC[C@@H](C(=O)N1CCN(c2ncnc3c2[C@H](C)C[C@H]3O)CC1)c1ccc(Cl)cc1 | System = SEM cells | AUC of viability dose-response curve = ____
257

Please tell me: AUC of viability dose-response curve of Nc1nc(Cl)nc2c1ncn2[C@H]1C[C@H](O)[C@@H](CO)O1 , system SEM cells?
238

Form: Entry = CC(C)CC(=O)N[C@H](C(=O)N[C@H](C(=O)N[C@@H](CC(C)C)[C@@H](O)CC(=O)N[C@@H](C)C(=O)N[C@@H](CC(C)C)[C@@H](O)CC(=O)O)C(C)C)C(C)C | System = SEM cells | AUC of viability dose-response curve = ____
443

# get_value(readout= AUC of viability dose-response curve, system= SEM cells) for Cc1c(C(=O)NN2CCCCC2)nn(-c2ccc(Cl)cc2Cl)c1-c1ccc(Cl)cc1
473

Please provide the recorded AUC of viability dose-response curve for CC(C)C(=O)Oc1ccc(CO)cc1[C@H](CCN(C(C)C)C(C)C)c1ccccc1 , tested on SEM cells.
376

Form: Entry = COc1cc(OC)c(/C=C/[S+](=O)([O-])Cc2ccc(OC)c(NCC(=O)[O][Na])c2)c(OC)c1 | System = SEM cells | AUC of viability dose-response curve = ____
287

---

Test system: SEM cells
Test: cell viability relative to DMSO control; higher = less cytotoxic
Conditions: RPMI 5 mM glucose + 10% FBS; 48 h; 0.000781 µM
# cell viability values compiled below
Numbers only here, please. The scale is %.

Given the entry N#Cc1c(NC(=O)c2cccc3ccccc23)sc2c1CCCC2 , report its measured cell viability.
119

What value of cell viability has been recorded for this entry: Cc1cnc(-c2cc(N3CCN(C(=O)CC[S+](C)(=O)[O-])CC3)ncc2Cl)c(C)c1
115

Which cell viability value is on record for COc1ccc(C2CNC(=O)C2)cc1OC1CCCC1 (stereo not drawn) ?
82.9

Please report the recorded cell viability for CN[C@@H]1[C@H](O)[C@H](NC)[C@H]2O[C@@]3(O)C(=O)C[C@@H](C)O[C@H]3O[C@@H]2[C@H]1O .
120

Look at this compound and give its reported cell viability. COc1ccc(C(C)=O)c(O)c1
104

// returns reported cell viability for input COc1cc2nccc(Oc3ccc(NC(=O)NC4CC4)c(Cl)c3)c2cc1C(N)=O
93.5

State the recorded cell viability for this entry: CC(C)C(=O)Nc1ccc([N+](=O)[O-])c(C(F)(F)F)c1
118

What value of cell viability has been recorded for this entry: CCC(C)(C)c1ccc(CC(C)CN2C[C@@H](C)O[C@@H](C)C2)cc1 (stereo partly drawn)
80

---

System: NOMO1
Test: cell viability relative to DMSO control; higher = less cytotoxic
Details: RPMI 5 mM glucose + 10% dialyzed FBS; 48 h; 0.000781 µM
Parameter: cell viability. Scope: all listed entries.
Numbers only here, please. The scale is %.

{"columns": ["smiles-code", "cell viability [%]"],
 "data": [
  ["COc1cc2ncnc(Nc3cc(Br)c(O)c(Br)c3)c2cc1OC", 92.4],
  ["CNC(=O)c1ccc(N2C(=S)N(c3ccc(C#N)c(C(F)(F)F)c3)C(=O)C23CCC3)cc1F", 84.9],
  ["S=P(N1CC1)(N1CC1)N1CC1", 101]
]}

// below: cell viability requested for another compound
Consider the compound Cc1cn([C@@H]2O[C@H](CO)[C@@H](O)[C@@H]2F)c(=O)[nH]c1=O and give its measured cell viability.
86.1

---

Test system: SEM cells
Experiment: cell viability relative to DMSO control; higher = less cytotoxic
Conditions: RPMI 5 mM glucose + 10% FBS; 48 h; 0.19 µM
endpoint: cell viability (%)
Numbers only; they are read as %.

Look over these answered cases.
{"columns": ["smiles-code", "numeric-value"],
 "data": [
  ["NC/1=N/C2=C([NH]C=N2)C(=S)N1", 114],
  ["CC[C@@]1(O)C(=O)OC\\C2=C1\\C=C3/N(CC4=CC5=C(C=CC(=C5CN(C)C)O)N=C34)C2=O", 22.4],
  ["CC(C)C(=O)Nc1ccc([N+](=O)[O-])c(C(F)(F)F)c1", 140]
]}

Can you look up the measured cell viability of Cn1cnc2c1c(=O)[nH]c(=O)n2C for me?
107

---

System: P12-Ichikawa
Test: cell viability relative to DMSO control; higher = less cytotoxic
Conditions: RPMI 5 mM glucose + 10% FBS; 48 h; 15.4 µM
Entries annotated with measured cell viability

Solved cases below.
{"columns": ["compound", "result"],
 "data": [
  ["Cn1cnc2c1c(=O)[nH]c(=O)n2C", "82.2%"],
  ["C#C[C@]1(O)CC[C@H]2[C@@H]3CCc4cc(O)ccc4[C@H]3CC[C@@]21C", "67.7%"],
  ["NC/1=N/C2=C([NH]C=N2)C(=S)N1", "88.1%"],
  ["CNC1CCC(N(Cc2cccc(-c3ccncc3)c2)C(=O)c2sc3c(F)ccc(F)c3c2Cl)CC1 (stereo not given)", "94.9%"]
]}

Now look at this one.
Which value of cell viability has been reported for CC/1=C(/N2[C@H](SC1)[C@H](NC(=O)[C@H](N)\C3=C\C\C=C/C3)C2=O)C(O)=O in the records?
124%

---

Tested on: NOMO1
Test: cell viability relative to DMSO control; higher = less cytotoxic
Settings: RPMI 5 mM glucose + 10% FBS; 48 h; 0.00702 µM
endpoint: cell viability (%)
Unit % implied. Number only.

In the examples that follow, each entry is paired with its recorded cell viability.
{"columns": ["compound", "unit-name", "numeric-value"],
 "data": [
  ["C[C@@H]1[C@H](O)[C@@H](C)/C=C/C=C/C=C/C=C/C=C/C=C/C=C/[C@H](O[C@@H]2O[C@H](C)[C@@H](O)[C@H](N)[C@@H]2O)C[C@@H]2O[C@](O)(C[C@@H](O)C[C@@H](O)[C@H](O)CC[C@@H](O)C[C@@H](O)CC(=O)O[C@H]1C)C[C@H](O)[C@H]2C(=O)O", "%", 112],
  ["CCC(C)(Oc1ccc(C2(c3ccc(OC(C)(CC)C(=O)O)cc3)CCCCC2)cc1)C(=O)O (stereo unspecified)", "%", 95.5],
  ["N[C@H](CSC(c1ccccc1)(c1ccccc1)c1ccccc1)C(=O)O", "%", 126],
  ["CC1(C)O[C@@H]2C[C@H]3[C@@H]4CCC5=CC(=O)C=C[C@]5(C)[C@H]4[C@@H](O)C[C@]3(C)[C@]2(C(=O)CO)O1", "%", 90.4]
]}

Give its cell viability value. Item: O=C(O)C1=NC(C(=O)O)CC(/C=C/N2c3cc(O)c(OC4OC(CO)C(O)C(O)C4O)cc3CC2C(=O)O)=C1 (stereo unspecified)
94.2

Item under review: O=C(Nc1ccccc1-c1cn2c(CN3CCNCC3)csc2n1)c1cnc2ccccc2n1 . Reported cell viability?
82.9

Can you share its cell viability? I mean this compound: S=P(N1CC1)(N1CC1)N1CC1
95.7

Sample CC(C)(C)c1[nH]cnc1/C=c1\[nH]c(=O)/c(=C/c2ccccc2)[nH]c1=O — what was its cell viability?
24.3

// query cell viability value for entry CNC1CCC(N(Cc2cccc(-c3ccncc3)c2)C(=O)c2sc3c(F)ccc(F)c3c2Cl)CC1 (stereo unspecified)
100

I would be grateful if you could share the reported cell viability for COc1cc(OC)c(/C=C/[S+](=O)([O-])Cc2ccc(OC)c(NCC(=O)[O][Na])c2)c(OC)c1 .
102

Tell me the measured cell viability of FC(F)c1nc2ccccc2n1-c1nc(N2CCOCC2)nc(N2CCOCC2)n1 , please.
87.9

Ref: the supplement of paper PMC11451515
